Ref: paper PMC5540273

tested on: ABL2; settings: concentration: 1 μM,replicates: in singlicate; n = 1;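 note: KINOMEscan kinase panel screen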
Readings of %Inh for the listed molecules
Hi! Could you send only the number? It should be in %, unit omitted.

As a guide, the following entries are already answered.
>  <MOLECULE>
CCn1c(-c2nonc2N)nc2c(C#CC(C)(C)O)nc(OCCN)cc21.Cl.Cl

>  <ASSAY METRIC>
%Inh

>  <VAL>
13

$$$$
>  <MOLECULE>
CC(C)N1C(=O)Cc2cc(Nc3ncc(C(F)(F)F)c(NCc4cccc(S(C)(=O)=O)c4)n3)ccc21

>  <ASSAY METRIC>
%Inh

>  <VAL>
4

$$$$
>  <MOLECULE>
CCN(CC)CCCCNc1ncc2cc(-c3c(Cl)cccc3Cl)c(NC(=O)NC(C)(C)C)nc2n1

>  <ASSAY METRIC>
%Inh

>  <VAL>
99.6

$$$$
>  <MOLECULE>
C=CC(=O)Nc1cc2c(Nc3ccc(F)c(Cl)c3)ncnc2cc1OCCCN1CCOCC1

>  <ASSAY METRIC>
%Inh

>  <VAL>
70

$$$$
>  <MOLECULE>
CCN(CC)CCOc1ccc(Nc2ncc3cc(-c4c(Cl)cccc4Cl)c(=O)n(C)c3n2)cc1

>  <ASSAY METRIC>
%Inh

>  <VAL>
99.6

$$$$
>  <MOLECULE>
C[C@@H]1CCN(C(=O)CC#N)C[C@@H]1N(C)c1ncnc2[nH]ccc12

>  <ASSAY METRIC>
%Inh

>  <VAL>
0

$$$$

Ask: Param item = "COc1ccc(C[C@@H](CN)NC(=O)c2cc(Br)c(-c3ccnc4[nH]ccc34)s2)cc1.Cl.Cl" ; retrieve measured %Inh.
Reply: 31

Ask: Param item = "Cc1cc2cn[nH]c2cc1-c1cccc2c(N)c(C(N)=O)nnc12" ; retrieve measured %Inh.
Reply: 29

Ask: Param item = "CNC(=O)c1ccccc1Sc1ccc2c(/C=C/c3ccccn3)n[nH]c2c1" ; retrieve measured %Inh.
Reply: 88

Ask: Param item = "Cc1cc(C(=O)Nc2ccc(Oc3ccc4nc(NC(=O)C5CC5)cn4n3)cc2)nn1-c1ccccc1" ; retrieve measured %Inh.
Reply: 81

Ask: Param item = Cl.Cl.Nc1nc(-c2ccc3c(N)n[nH]c3c2)cc(N2CCCC(NC(=O)c3ccccc3)C2)n1 (stereo not drawn) ; retrieve measured %Inh.
Reply: 4

Ask: Param item = "Cl.Cl.NC[C@H](Cc1ccc(C(F)(F)F)cc1)NC(=O)c1cc(Br)c(-c2ccnc3[nH]ccc23)s1" ; retrieve measured %Inh.
Reply: 18

Ask: Param item = "NC(=O)c1cc(-c2ccccc2)cc2c(C3CCNCC3)c[nH]c12" ; retrieve measured %Inh.
Reply: 22

Ask: Param item = "Cc1ccc(-n2nc(C(C)(C)C)cc2NC(=O)Nc2ccc(OCCN3CCOCC3)c3ccccc23)cc1" ; retrieve measured %Inh.
Reply: 22

Ask: Param item = "CC(C)Nc1cc(-c2ccc3c(N)n[nH]c3c2)nc(N)n1" ; retrieve measured %Inh.
Reply: 6

---

Readings of %Inh for the listed compounds
system: NEK10; settings: concentration: 1 μM,replicates: in singlicate; n = 1
Hi! Could you send only the number? It should be in %, unit omitted.

As a guide, the following entries are already answered.
>  <COMPOUND>
Cl.Cl.NC[C@H](Cc1ccc(C(F)(F)F)cc1)NC(=O)c1cc(Br)c(-c2ccnc3[nH]ccc23)s1

>  <TESTED TARGET>
NEK10

>  <U>
%

>  <%Inh>
16

$$$$
>  <COMPOUND>
COc1ccc(C[C@@H](CN)NC(=O)c2cc(Br)c(-c3ccnc4[nH]ccc34)s2)cc1.Cl.Cl

>  <TESTED TARGET>
NEK10

>  <U>
%

>  <%Inh>
23

$$$$
>  <COMPOUND>
CCN(CC)CCCCNc1ncc2cc(-c3c(Cl)cccc3Cl)c(NC(=O)NC(C)(C)C)nc2n1

>  <TESTED TARGET>
NEK10

>  <U>
%

>  <%Inh>
29

$$$$
>  <COMPOUND>
CN(C)CCOc1ccc(-c2cc(-c3c[nH]nc3-c3ccccn3)ccn2)cc1

>  <TESTED TARGET>
NEK10

>  <U>
%

>  <%Inh>
0

$$$$
>  <COMPOUND>
CC(C)N1C(=O)Cc2cc(Nc3ncc(C(F)(F)F)c(NCc4cccc(S(C)(=O)=O)c4)n3)ccc21

>  <TESTED TARGET>
NEK10

>  <U>
%

>  <%Inh>
0

$$$$

Ask: Param item = "C[C@H]1Oc2cc(cnc2N)-c2c(nn(C)c2C#N)CN(C)C(=O)c2ccc(F)cc21" ; retrieve measured %Inh.
Reply: 19

Ask: Param item = "CCn1c(-c2nonc2N)nc2c(C#CC(C)(C)O)nc(OCCN)cc21.Cl.Cl" ; retrieve measured %Inh.
Reply: 6

Ask: Param item = "C[C@@H]1CCN(C(=O)CC#N)C[C@@H]1N(C)c1ncnc2[nH]ccc12" ; retrieve measured %Inh.
Reply: 0

Ask: Param item = "Cc1cc(C(=O)Nc2ccc(Oc3ccc4nc(NC(=O)C5CC5)cn4n3)cc2)nn1-c1ccccc1" ; retrieve measured %Inh.
Reply: 0

Ask: Param item = "Cc1n[nH]c2ccc(-c3cc(OC[C@@H](N)Cc4ccccc4)cnc3-c3ccoc3)cc12.O=C(O)C(F)(F)F.O=C(O)C(F)(F)F" ; retrieve measured %Inh.
Reply: 5

Ask: Param item = "CNC(=O)c1ccccc1Sc1ccc2c(/C=C/c3ccccn3)n[nH]c2c1" ; retrieve measured %Inh.
Reply: 18

Ask: Param item = "Nc1nc(Nc2ccccc2)cc(-c2ccc3c(N)n[nH]c3c2)n1" ; retrieve measured %Inh.
Reply: 0

Ask: Param item = CN(C)CC(O)COc1ccc(Nc2nccc(-c3cnn4nc(N5CCOCC5)ccc34)n2)cc1 (centres unmarked) ; retrieve measured %Inh.
Reply: 80

Ask: Param item = "O=C(NCCNc1ccnc(NCc2ccc(F)cc2)n1)c1cc2ccccc2s1" ; retrieve measured %Inh.
Reply: 0

Ask: Param item = "Cl.Oc1cc(-c2nc(-c3ccccc3)[nH]c2-c2ccncc2)ccc1Cl" ; retrieve measured %Inh.
Reply: 0

Ask: Param item = "C[C@@H](Oc1cc(-c2cnn(C3CCNCC3)c2)cnc1N)c1c(Cl)ccc(F)c1Cl" ; retrieve measured %Inh.
Reply: 60

Ask: Param item = "Cc1occc1-c1nc(N)c(OC[C@@H](N)Cc2c[nH]c3ccccc23)cc1-c1cc2c(C)n[nH]c2cn1" ; retrieve measured %Inh.
Reply: 6
